Data provenance: the supplement of paper PMC9732359

TEST DESCRIPTION: protein stability index of a GFP-peptide fusion (yeast GPS) (PSI 1-4); higher = more stable; sorted into four equal gates, so the index is relative within each strain
CONDITION DETAILS: pdr5∆
MEASURED METRIC: protein stability index

seq_string="EIKKMIITNINAIFLSS [YCG1]" experimental_value=1.94
seq_string="TNNEQLQQELATTQDQV [NUT2]" experimental_value=3.25
seq_string="KHWTEKSLHEMNERDWR [PRP28]" experimental_value=3.02
seq_string="EELVSLAVFLFDIYNRD [YJL039C/NUP192]" experimental_value=1.24
seq_string="NVGLCITIYDLLTVEEG [RPC25]" experimental_value=1.26
seq_string="QSSRVVSLSQLLFIVGQ [YCS4]" experimental_value=1.33
seq_string="LYVDSESTSSTEEVEAL [MTW1]" experimental_value=3.76
seq_string="STLSNWSSEFAKWAPTL [SNF2]" experimental_value=2.45
seq_string="HILAVKKMMNTLVHTRV [SSN2]" experimental_value=2.03
seq_string="HLNFPNVKFLRIFISNV [SNF12]" experimental_value=1.26
seq_string="ENPTPEKGNAKMIDFAT [SIR3]" experimental_value=2.99
seq_string="GKMNNEVSTSTSMTGDA [SWI3]" experimental_value=3.3
seq_string="DQLIISSSANKLLQLFL [YML103C/NUP188]" experimental_value=2.17
seq_string="NTSLNINGWKFESLPLK [SWP82]" experimental_value=2.96
seq_string="TGKFVLQGQMEKIMILL [CSN12]" experimental_value=2.2
seq_string="ARGTIEIVSDVKVVDAG [RPP0]" experimental_value=2.21
seq_string="PAELDLRGSLLSRKPSD [RPC82]" experimental_value=3.38
seq_string="CIIAVSCTLLERGHPKD [POP1]" experimental_value=1.52
seq_string="AIFPYQDPIFGSVLLTL [ECM29]" experimental_value=1.84
seq_string="FEGNALIRRLVRVGVLS [RPS9A]" experimental_value=2.52
seq_string="SKSLQESGDTQEEDEEE [RPC82]" experimental_value=3.48
seq_string="FSYQEVEFKLPKELVPS [CDC53]" experimental_value=2.16
seq_string="QELRKKVNPNIMNMIEN [SMC2]" experimental_value=2.72
seq_string="VFKATSSTDEESWFKAL [FAS1]" experimental_value=3
seq_string="YGNRAEQFLETDSDFAK [SRP68]" experimental_value=2.99
seq_string="GSRTTTNHVLEVFSVLG [RPO31]" experimental_value=2.76
seq_string="MNRPGARVTRRKRCKGT [RPL11A]" experimental_value=3.25
seq_string="VSETPKRIKGLEFSALS [RPO31]" experimental_value=2.94
seq_string="KKKVYTTPKKIKHKHKK [RPS31]" experimental_value=2.86
seq_string="KKFIEISDVKIQVAAFI [PRP8]" experimental_value=2.54
